Molecular target: Furin (literature), P09958
Sequence (P09958 108-715): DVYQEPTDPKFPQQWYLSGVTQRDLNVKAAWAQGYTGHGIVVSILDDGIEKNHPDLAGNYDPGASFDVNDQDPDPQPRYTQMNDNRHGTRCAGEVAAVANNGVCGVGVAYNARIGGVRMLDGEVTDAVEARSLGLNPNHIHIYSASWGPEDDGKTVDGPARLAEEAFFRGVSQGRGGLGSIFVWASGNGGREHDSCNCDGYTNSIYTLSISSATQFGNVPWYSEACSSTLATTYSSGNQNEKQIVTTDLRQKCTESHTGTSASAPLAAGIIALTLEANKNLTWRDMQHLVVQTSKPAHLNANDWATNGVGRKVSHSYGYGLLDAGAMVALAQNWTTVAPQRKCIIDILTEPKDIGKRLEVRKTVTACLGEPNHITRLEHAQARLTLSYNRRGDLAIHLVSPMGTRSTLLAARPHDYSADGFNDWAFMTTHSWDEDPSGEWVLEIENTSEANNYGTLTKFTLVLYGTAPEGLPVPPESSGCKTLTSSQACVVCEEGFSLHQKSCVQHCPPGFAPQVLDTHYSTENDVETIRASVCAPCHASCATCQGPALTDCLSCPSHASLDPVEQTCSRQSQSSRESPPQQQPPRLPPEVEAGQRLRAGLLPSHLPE
Details: modification not given
parameter: Ki (nM)
Could you give me the number in nM? Just the number is fine.

// Input: EQRLLKRAKR [PC7 propeptide fragment] . Output its Ki only.
80
